Values from the supplement of paper PMC6555819

PBM binding z-score values by entry
tested on: PPARg:RXRa IVT, anti-PPARg (NR concentration 270 nM, RXRa partner concentration 90 nM); experiment: PBM binding z-score (relative to random genomic background probes); higher = stronger binding; sequences stand for … in GC…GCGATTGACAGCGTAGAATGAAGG

- sequence_chain: "AATACAGGGTGATCGTAGGCCAGAGTACGCACAG"
  PBM binding z-score: 1.51
- sequence_chain: "CGAACTAGGTCACCAGGACAGTGATGAGGTTGGA"
  PBM binding z-score: 8.61
- sequence_chain: "GGAACGGGGGCAAGTTGATAGCAGAGTTTGATGG"
  PBM binding z-score: 5.53
- sequence_chain: "TGTCAGAGTTCAAAGGTAACGTAAGTATCCACAC"
  PBM binding z-score: 3.16
- sequence_chain: "CCCGCTAGGTCATGGTCAGCTAATCTACAGTATG"
  PBM binding z-score: 3.52
- sequence_chain: "CCGAGTAGGTTACGAGGGGGCATTCAATGCGAAT"
  PBM binding z-score: 4.57

----------
system: RXRa DBDmut IVT, anti-RXR (DBD mutation: RXRa K156A/R161A, NR concentration 90 nM); test: PBM binding z-score (relative to random genomic background probes); higher = stronger binding; sequences stand for … in GC…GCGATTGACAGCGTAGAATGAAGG
# maps each entry to its PBM binding z-score

- sequence_chain: "TCAGATAGGTAAAGGTGAAAGTCGAACGATATGA"
  PBM binding z-score: 0.734
- sequence_chain: "AGTAAAAGTTCACTAGGTAACGTAAGATTCAGCT"
  PBM binding z-score: 4.22
- sequence_chain: "CACACTAGGTCAAGAGGTCAAAGTCCGCTTCCCG"
  PBM binding z-score: 3.09
- sequence_chain: "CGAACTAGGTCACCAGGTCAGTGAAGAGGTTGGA"
  PBM binding z-score: 1.7
- sequence_chain: "GCTGCTAGGTCAGGTTGGTCAACTAACGGGTACG"
  PBM binding z-score: 0.438
- sequence_chain: "CAAACTAGGTCAAAGGTCAAAATCGAGCCAACCA"
  PBM binding z-score: 3.07
- sequence_chain: "CGTCAAAGTTCAAGGTAAAGTAACAGAAAGCAGC"
  PBM binding z-score: 4.04
- sequence_chain: "CCAGACAGGTGAAAGGTCACTCAGTCTGGTACGC"
  PBM binding z-score: 1.18
- sequence_chain: "CCTACTGGGCCAACAAGGTCATTGATGCCGATAA"
  PBM binding z-score: 0.655
- sequence_chain: "CGTCCAAGCTCAGCAGGTCAGTGAAAGCGACGTG"
  PBM binding z-score: -0.071
- sequence_chain: "CCTGCTAGTTCATGGTCAGCTAATCTACAGTATG"
  PBM binding z-score: 2.43
- sequence_chain: "TAGCCTAGGTGATTGGGCCAGTATAGTACGCATC"
  PBM binding z-score: -0.669

----------
test system: LXRb:RXRa (NR concentration 270 nM, RXRa partner concentration 90 nM); assay: PBM binding z-score (relative to random genomic background probes); higher = stronger binding; sequences stand for … in GC…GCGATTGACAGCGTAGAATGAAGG
# key: entry, value: PBM binding z-score
observation_type: PBM binding z-score

- sequence_chain: "CCGAGTAGCTTACGAGGGGGCATTCAGTGCGAAT"
  observation_type: "PBM binding z-score"
  measured_result: 3.62
- sequence_chain: "CCTACTGGGCGAAGGTCATTGATCAGTCAAAGCA"
  observation_type: "PBM binding z-score"
  measured_result: 2.83
- sequence_chain: "CCGAGTAGGTTACGAGGGGACATTCAGTGCGAAT"
  observation_type: "PBM binding z-score"
  measured_result: 3.05
- sequence_chain: "GCATATAGGTAATTCAAGGTGAAAGTCCGATTGT"
  observation_type: "PBM binding z-score"
  measured_result: 2.13
- sequence_chain: "TCGAGTAGGTTACGGGGGCAATCAGGGATGAAGA"
  observation_type: "PBM binding z-score"
  measured_result: 4.49
- sequence_chain: "CCGAGTAGGTTACGAGCGGGCATTCAGTGCGAAT"
  observation_type: "PBM binding z-score"
  measured_result: 4.08

----------
system: VDR:RXRa (NR concentration 270 nM, RXRa partner concentration 90 nM); test: PBM binding z-score (relative to random genomic background probes); higher = stronger binding; sequences stand for … in GC…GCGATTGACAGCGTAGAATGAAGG
Mark No for PBM binding z-score values under 3, and Yes for everything at or above.

- sequence_chain: "CGGCCAAGGTCAAAGGTCAGTGAAGAGATGACGG"
  tested_on: "VDR:RXRa (NR concentration 270 nM, RXRa partner concentration 90 nM)"
  class: "Yes"
- sequence_chain: "GCTTACGGGTCAAAGGTTATGGCATGAATAGAAT"
  tested_on: "VDR:RXRa (NR concentration 270 nM, RXRa partner concentration 90 nM)"
  class: "Yes"
- sequence_chain: "CGAACTATGTCAAAGGACAGTGAAAGGCGACGTA"
  tested_on: "VDR:RXRa (NR concentration 270 nM, RXRa partner concentration 90 nM)"
  class: "No"
- sequence_chain: "ACTAGGTGGTCAGCTGAGGTCACACACAATTCGG"
  tested_on: "VDR:RXRa (NR concentration 270 nM, RXRa partner concentration 90 nM)"
  class: "Yes"
- sequence_chain: "ATACGTAGGTTAGGGTCATTCAGAAAGTAGGGAA"
  tested_on: "VDR:RXRa (NR concentration 270 nM, RXRa partner concentration 90 nM)"
  class: "Yes"
- sequence_chain: "CCTAGTTGGTCAGGGGGTCACACACCGGATATGA"
  tested_on: "VDR:RXRa (NR concentration 270 nM, RXRa partner concentration 90 nM)"
  class: "Yes"
- sequence_chain: "CCGACTGGGGCAACGGTTACCATACTCAGTACGA"
  tested_on: "VDR:RXRa (NR concentration 270 nM, RXRa partner concentration 90 nM)"
  class: "No"
- sequence_chain: "ATCGAAAGGTCGAAGGAGAGTATACCCACCCGAA"
  tested_on: "VDR:RXRa (NR concentration 270 nM, RXRa partner concentration 90 nM)"
  class: "No"
- sequence_chain: "CCTAGCAGGCCAATCGGGGTCACTCAAGGCTTGA"
  tested_on: "VDR:RXRa (NR concentration 270 nM, RXRa partner concentration 90 nM)"
  class: "Yes"
- sequence_chain: "CAAAATAGGTCAAGGTCAAAGTCGGTTTGTGCCA"
  tested_on: "VDR:RXRa (NR concentration 270 nM, RXRa partner concentration 90 nM)"
  class: "Yes"
- sequence_chain: "AGTCAAATTTCATCTAGGTAACGTAAGATATGCT"
  tested_on: "VDR:RXRa (NR concentration 270 nM, RXRa partner concentration 90 nM)"
  class: "No"
